The values you see were collected from patent US12466813B2.

Target: RING1B-BMI1 (Homo sapiens, UniProt Q99496)
Sequence (Q99496 1-336): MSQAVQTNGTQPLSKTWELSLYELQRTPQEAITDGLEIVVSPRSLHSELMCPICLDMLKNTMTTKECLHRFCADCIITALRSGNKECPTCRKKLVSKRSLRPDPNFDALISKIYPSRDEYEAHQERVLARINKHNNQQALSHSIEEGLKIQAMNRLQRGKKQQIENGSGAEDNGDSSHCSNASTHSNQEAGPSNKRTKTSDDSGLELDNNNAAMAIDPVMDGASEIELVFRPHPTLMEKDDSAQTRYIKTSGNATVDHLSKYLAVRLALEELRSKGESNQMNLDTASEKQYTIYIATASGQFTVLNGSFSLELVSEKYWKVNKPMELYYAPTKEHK
Sequence (P35226 1-326 partner): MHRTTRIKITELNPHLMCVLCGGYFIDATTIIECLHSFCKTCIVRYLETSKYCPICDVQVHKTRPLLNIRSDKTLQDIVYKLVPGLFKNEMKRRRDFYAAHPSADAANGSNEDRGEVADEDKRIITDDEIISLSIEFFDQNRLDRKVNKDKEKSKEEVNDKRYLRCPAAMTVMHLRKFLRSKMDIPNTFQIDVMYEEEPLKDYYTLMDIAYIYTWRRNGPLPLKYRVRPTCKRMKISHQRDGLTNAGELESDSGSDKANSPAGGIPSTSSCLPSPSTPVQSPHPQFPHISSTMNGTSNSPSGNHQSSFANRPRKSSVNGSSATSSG
Test: KD classes of Table A (direct binding to Ring1B-Bmi1)
Settings: class given in Table A
Property: Kd; scope: individual compounds

The examples below pair each entry with its known result.
CCc1c(-c2cccc3[nH]ccc23)[nH]c(C(=O)O)c1-c1cc(N)ccc1Cl [compound 80] ... 20 to 50 µM
CC(C)c1c(-c2cc(F)cc3[nH]ccc23)[nH]c(C(=O)O)c1-c1cccc2ncccc12 [compound 268] ... < 20 µM
CC(C)c1c(-c2cc(F)cc3[nH]ccc23)[nH]c(C(=O)O)c1-c1cccc2scnc12 [compound 172] ... < 20 µM
CC(C)c1c(-c2cc(F)cc3[nH]ccc23)[nH]c(CC(=O)O)c1-c1cccc2[nH]ccc12 [compound 215] ... < 20 µM
COc1cc(-c2c(C(=O)O)[nH]c(-c3cc(F)cc4[nH]ccc34)c2C(C)C)c2ccn(CC(=O)O)c2c1 [compound 46] ... < 20 µM

Task item: Using the record for COc1ccc2[nH]ccc2c1-c1c(C(=O)O)[nH]c(-c2cc(F)cc3[nH]ccc23)c1C(C)C [compound 244] , report its Kd.
Reply: < 20 µM

Task item: Using the record for CC(C)c1c(-c2cc(F)cc3[nH]ccc23)[nH]c(C(=O)O)c1-c1cc(C(=O)N2CCCC2)cc2[nH]ccc12 [compound 198] , report its Kd.
Reply: < 20 µM

Task item: Using the record for O=C(O)c1ccc(-c2cccc3c2ccn3C2CC2)[nH]1 [compound 119] , report its Kd.
Reply: > 100 µM
